These data points were gathered from patent US20250263490A1.

# measured target: T1, recombinant human domain 1-3His6 of the cation-independent mannose-6-phosphate receptor (human, UniProt P11717 41-467)
# T1 construct: Biotinylated (NHS-PEG4-biotin) for BLI; Glycosylated; also called hDom1-3His6; hCI-M6PRD1-D3
# assay overview: BLI at pH 7.4, 2nd of 2 repeats
measurement name: Kd (nM)

binder	Kd / nM
anti-CI-M6PR VHH7 (VHH, His6-tagged (Pichia pastoris)) VHH: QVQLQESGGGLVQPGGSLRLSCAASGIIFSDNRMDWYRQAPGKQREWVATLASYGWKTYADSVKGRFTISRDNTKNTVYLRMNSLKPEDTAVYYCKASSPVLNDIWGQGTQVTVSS	9.08
anti-CI-M6PR VHH3 (VHH, His6-tagged; made in Pichia pastoris) VHH: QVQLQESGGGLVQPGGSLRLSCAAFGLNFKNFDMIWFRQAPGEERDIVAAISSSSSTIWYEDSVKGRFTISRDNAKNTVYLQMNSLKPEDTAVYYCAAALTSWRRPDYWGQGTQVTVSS	7.1
